Test: Plasma concentrations after oral dosing of rats
Assay type: in vivo, male jugular vein cannulated rats
Conditions: rat plasma, single 8 mg/kg dose by oral gavage, dosed in combination
readout-kind: in vivo half-life

C=CC(=O)N1CCC[C@@H](n2nc(-c3ccc(Oc4ccccc4)cc3)c3c(N)ncnc32)C1 ... short half-life in vivo
CN(C)C/C=C/C(=O)N1CCC[C@H]1Cn1nc(-c2ccc(Oc3ccccc3)cc2)c2c(N)ncnc21 ... short half-life in vivo

----------
Hi there, I'd appreciate the recorded Glutathione Conj Rate for every entry that follows.
Test: Glutathione binding assay
Assay type: physicochemical
Settings: 5 mM glutathione, 10 μM inhibitor, potassium phosphate buffer, room temperature, HPLC
Express your answer in nmol/min, writing the number without its unit.

Ask: Name the reported Glutathione Conj Rate value associated with the molecule C=CC(=O)N1CCC[C@@H](n2nc(-c3ccc(Oc4ccccc4)cc3)c3c(N)ncnc32)C1
Reply: 0.398

Ask: Name the reported Glutathione Conj Rate value associated with the molecule CN(C)C/C=C/C(=O)N1CCC[C@@H]1Cn1nc(-c2ccc(Oc3ccccc3)cc2)c2c(N)ncnc21
Reply: 0.004525

Ask: Name the reported Glutathione Conj Rate value associated with the molecule CC#CC(=O)N1CCC[C@@H](n2nc(-c3ccc(Oc4ccccc4)cc3)c3c(N)ncnc32)C1
Reply: 0.0243

Ask: Name the reported Glutathione Conj Rate value associated with the molecule CN(C)C/C=C/C(=O)N1CCC[C@H]1Cn1nc(-c2ccc(Oc3ccccc3)cc2)c2c(N)ncnc21
Reply: 0.004361

Ask: Name the reported Glutathione Conj Rate value associated with the molecule Nc1ncnc2c1c(-c1ccc(Oc3ccccc3)cc1)nn2C1CCCN(C(=O)/C=C/CN2CCOCC2)C1 (centres unmarked)
Reply: 0.004

Ask: Name the reported Glutathione Conj Rate value associated with the molecule C=CC(=O)N1CCC(n2nc(-c3ccc(Oc4ccccc4)cc3)c3c(N)ncnc32)CC1
Reply: 0.39

Ask: Name the reported Glutathione Conj Rate value associated with the molecule CC#CC(=O)N[C@H]1CC[C@@H](n2nc(-c3ccc(Oc4ccccc4)cc3)c3c(N)ncnc32)CC1
Reply: 0.014

Ask: Name the reported Glutathione Conj Rate value associated with the molecule CN(C)C/C=C/C(=O)N1CCC(n2nc(-c3ccc(Oc4ccccc4)cc3)c3c(N)ncnc32)CC1
Reply: 0.01
